details: 324.15 K; 101.33 kPa; Liquid
reported endpoint: mass density (kg/m3)

Examples from the recorded data:
Can you share its mass density? I mean this molecule: COCCOCCOC [2,5,8-trioxanonane]
912.73

Can you share its mass density? I mean this molecule: CCOCCOCCOCC [diethylene glycol diethyl ether]
876.7

[a] ClCCCl [1,2-dichloroethane]
[b] COCCOC [1,2-dimethoxyethane]
Please tell me which of the two, a or b , has the higher reported mass density value. Lab log: write the label of the selected item as the result.
a

====

settings: 327.15 K; 101.33 kPa; Liquid
reported endpoint: mass density (kg/m3)

Can you share its mass density? I mean this molecule: COCCOC [1,2-dimethoxyethane]
828.78

Can you share its mass density? I mean this molecule: ClCCCl [1,2-dichloroethane]
1202.71

Can you share its mass density? I mean this molecule: CCOCCOCCOCC [diethylene glycol diethyl ether]
873.78

Can you share its mass density? I mean this molecule: COCCOCCOC [2,5,8-trioxanonane]
909.69

====

details: 284.15 K; 101.33 kPa; Liquid
reported endpoint: mass density (kg/m3)

Can you share its mass density? I mean this compound: `COCCOC`
876.56

Can you share its mass density? I mean this compound: `ClCCCl`
1265.95

Can you share its mass density? I mean this compound: `CCOCCOCCOCC`
915.39

Can you share its mass density? I mean this compound: `COCCOCCOC`
952.67

====

conditions: 314.15 K; 101.33 kPa; Liquid
reported endpoint: mass density (kg/m3)

[A] ClCCCl
[B] COCCOC
Please tell me which of the two, A or B , has the higher reported mass density value. Lab log: write the label of the selected item as the result.
A

====

details: 326.15 K; 101.33 kPa; Liquid
reported endpoint: mass density (kg/m3)

[a] ClCCCl [1,2-dichloroethane]
[b] COCCOC [1,2-dimethoxyethane]
When the recorded mass density values are compared, which is smaller: that of a or that of b ? Lab log: write the label of the selected item as the result.
b
(b: 829.93 kg/m3, a: 1204.21 kg/m3)

====

conditions: 320.15 K; 101.33 kPa; Liquid
reported endpoint: mass density (kg/m3)

Examples from the recorded data:
Can you share its mass density? I mean this compound: `COCCOCCOC`
916.78

Can you share its mass density? I mean this compound: `CCOCCOCCOCC`
880.57

[I] ClCCCl
[II] COCCOC
Please tell me which of the two, I or II , has the higher reported mass density value. Lab log: write the label of the selected item as the result.
I

====

conditions: 287.15 K; 101.33 kPa; Liquid
reported endpoint: mass density (kg/m3)

Can you share its mass density? I mean this compound: COCCOCCOC [2,5,8-trioxanonane]
949.71

Can you share its mass density? I mean this compound: COCCOC [1,2-dimethoxyethane]
873.31

Can you share its mass density? I mean this compound: ClCCCl [1,2-dichloroethane]
1261.6

Can you share its mass density? I mean this compound: CCOCCOCCOCC [diethylene glycol diethyl ether]
912.5

====

conditions: 288.15 K; 101.33 kPa; Liquid
reported endpoint: mass density (kg/m3)

Can you share its mass density? I mean this compound: ClCCCl [1,2-dichloroethane]
1260.15

Can you share its mass density? I mean this compound: COCCOC [1,2-dimethoxyethane]
872.23

Can you share its mass density? I mean this compound: CCOCCOCCOCC [diethylene glycol diethyl ether]
911.53

Can you share its mass density? I mean this compound: COCCOCCOC [2,5,8-trioxanonane]
948.72
